system-under-test: Ba/F3 EGFR Del19/T790M mutants (Homo sapiens, UniProt P00533, T790M, cells depend on it, form not given)
Sequence (P00533 with tags, fused parts or gaps DEL746-750/T790M, form open): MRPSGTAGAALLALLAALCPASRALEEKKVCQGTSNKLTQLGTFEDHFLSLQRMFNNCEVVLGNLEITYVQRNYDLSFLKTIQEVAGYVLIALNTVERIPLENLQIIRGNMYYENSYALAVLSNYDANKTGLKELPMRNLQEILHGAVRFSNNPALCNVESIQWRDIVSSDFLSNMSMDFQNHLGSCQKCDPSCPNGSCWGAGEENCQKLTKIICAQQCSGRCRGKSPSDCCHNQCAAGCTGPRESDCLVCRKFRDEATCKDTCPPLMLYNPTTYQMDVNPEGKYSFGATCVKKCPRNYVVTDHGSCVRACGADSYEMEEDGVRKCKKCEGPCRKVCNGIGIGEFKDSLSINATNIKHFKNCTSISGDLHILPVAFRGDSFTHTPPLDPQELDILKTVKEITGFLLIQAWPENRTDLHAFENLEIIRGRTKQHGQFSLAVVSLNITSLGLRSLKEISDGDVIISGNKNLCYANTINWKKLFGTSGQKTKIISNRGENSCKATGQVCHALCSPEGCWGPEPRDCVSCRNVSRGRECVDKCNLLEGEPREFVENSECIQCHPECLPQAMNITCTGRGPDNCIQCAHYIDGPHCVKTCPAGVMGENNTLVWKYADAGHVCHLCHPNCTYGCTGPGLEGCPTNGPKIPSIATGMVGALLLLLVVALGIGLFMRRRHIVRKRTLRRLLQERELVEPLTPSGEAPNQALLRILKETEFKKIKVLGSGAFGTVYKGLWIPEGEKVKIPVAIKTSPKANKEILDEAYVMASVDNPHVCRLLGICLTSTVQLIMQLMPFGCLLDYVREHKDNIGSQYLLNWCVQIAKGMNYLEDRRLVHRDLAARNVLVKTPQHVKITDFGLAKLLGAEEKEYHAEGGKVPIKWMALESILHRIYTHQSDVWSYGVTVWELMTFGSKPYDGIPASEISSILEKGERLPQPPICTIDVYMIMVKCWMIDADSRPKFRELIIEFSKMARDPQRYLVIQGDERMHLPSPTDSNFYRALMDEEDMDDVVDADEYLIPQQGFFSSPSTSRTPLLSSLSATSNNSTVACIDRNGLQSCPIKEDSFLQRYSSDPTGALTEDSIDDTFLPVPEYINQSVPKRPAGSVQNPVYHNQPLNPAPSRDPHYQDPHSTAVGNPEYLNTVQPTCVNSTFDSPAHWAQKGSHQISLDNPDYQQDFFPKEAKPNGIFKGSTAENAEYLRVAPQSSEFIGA
experimental-protocol: CellTiter-Glo cell viability, Ba/F3 EGFR Del19/T790M cells
Type: cell-based, murine
run-parameters: 72 hours, read-out: Ba/F3 EGFR mutant cell (IC50, nM) D/T
Provide the reported log10(GI50) of each item.
Note: values are log10 of GI50 expressed in nM.

Looking for the measured log10(GI50) of CCc1cc(Nc2ncc(Br)c(Nc3ccc4nccnc4c3NS(C)(=O)=O)n2)c(OC)cc1N1CCC(N2CC3CCC2CN3C)CC1 (stereo not drawn) [Example A46] , can you help? 0.85

Now consider CCc1cc(Nc2ncc(Cl)c(Nc3ccc4nccnc4c3NS(C)(=O)=O)n2)c(OC)cc1N1CCC(N2CCCC2)CC1 [Example A34] . 0.70

Now consider CCCc1cc(Nc2ncc(Br)c(Nc3ccc4nccnc4c3N(C)S(C)(=O)=O)n2)c(OC)cc1N1CCC(N(C)C)CC1 [Example B24] . 1.36

Now consider CCCc1cc(Nc2ncc(Cl)c(Nc3ccc4c(c3NS(C)(=O)=O)OCCO4)n2)c(OC)cc1N1CCC(N(C)C)CC1 [Example C13] . 1.30

Now consider CCCc1cc(Nc2ncc(Cl)c(Nc3cccc(OC)c3N(C)S(C)(=O)=O)n2)c(OC)cc1N1CCC(N(C)C)CC1 [Example C31] . 1.34

Now consider COc1ccc(Nc2nc(Nc3cc(C)c(N4CCC(N(C)C)CC4)cc3OC)ncc2Cl)c(NS(C)(=O)=O)c1 [Example C4] . 1.48

Now consider CCc1cc(Nc2ncc(Br)c(Nc3cccc(OC)c3NS(C)(=O)=O)n2)c(OC)cc1N1CCC(N2CCN(C)CC2)CC1 [Example C22] . 0.60

Now consider CN[C@@H]1CN(c2ccc(Nc3ncc(Cl)c(Nc4ccc5nccnc5c4NS(C)(=O)=O)n3)c(OC)c2)C[C@H]1F [Example D5] . 2.67

Now consider CCc1cc(Nc2ncc(Cl)c(Nc3ccc4nccnc4c3N(C)S(C)(=O)=O)n2)c(OC)cc1N1CCC(N2CC3CCC2CN3C)CC1 (stereo not drawn) [Example A47] . 1.23

Now consider CCc1cc(Nc2ncc(Br)c(Nc3ccc4nccnc4c3N(C)S(C)(=O)=O)n2)c(OC)cc1N1CCC(N2CCCCC2)CC1 [Example A44] . 1.08

Now consider COc1cc(C2CCNCC2)ccc1Nc1ncc(Cl)c(Nc2ccc3nccnc3c2NC(C)=O)n1 [Example D3] . 2.83

Now consider CCCc1cc(Nc2ncc(Cl)c(Nc3ccc(OC)cc3NS(C)(=O)=O)n2)c(OC)cc1N1CCC(N(C)C)CC1 [Example C12] . 0.90

Now consider COc1cc(N2CCC(N3CCCC3)CC2)c(C)cc1Nc1ncc(Br)c(Nc2cccc(OC)c2NS(C)(=O)=O)n1 [Example C25] . 0.78

Now consider CCCc1cc(Nc2ncc(Cl)c(Nc3cccc(OC)c3NS(C)(=O)=O)n2)c(OC)cc1N1CCC(N(C)C)CC1 [Example C19] . 0.95

Now consider CCc1cc(Nc2ncc(Br)c(Nc3cccc(OC)c3N(C)S(C)(=O)=O)n2)c(OC)cc1N1CCC(N2CCN(C)CC2)CC1 [Example C7] . 0.78

Now consider CCc1cc(Nc2ncc(Cl)c(Nc3ccc4nccnc4c3N(C)S(C)(=O)=O)n2)c(OC)cc1N1CC2CCC1CN2C(C)C (stereo not drawn) [Example B28] . 1.36

Now consider CCc1cc(Nc2ncc(Br)c(Nc3ccc4nccnc4c3NS(C)(=O)=O)n2)c(OC)cc1N1CCC(N2CCOCC2)CC1 [Example A28] . 1.00

Now consider CCc1cc(Nc2ncc(Cl)c(Nc3ccc(OC)cc3NS(C)(=O)=O)n2)c(OC)cc1N1CCC(N2CCOCC2)CC1 [Example C14] . 0.30

Now consider COc1cc(N2CCC(N3CCN(C)CC3)CC2)c(C)cc1Nc1ncc(Cl)c(Nc2cccc(OC)c2NS(C)(=O)=O)n1 [Example C24] . 1.15

Now consider CCc1cc(Nc2ncc(Cl)c(Nc3ccc4nccnc4c3NS(C)(=O)=O)n2)c(OC)cc1N1CC2(C1)CN(C(C)C)C2 [Example B26] . 1.58

Now consider COc1cc(C2CCNCC2)c(F)cc1Nc1ncc(Cl)c(Nc2ccc3nccnc3c2NS(C)(=O)=O)n1 [Example B21] . 2.67
